The reported measurements were obtained from PubChem BioAssay.

Assayed target: NADPH oxidase 4 (Homo sapiens)
Experiment description: NOX4-dependent H2O2 signal modulators, primary screen, NOX inhibitor project, cell-based, HEK293-NOX4, tetracycline-induced, Amplex Red fluorescence (AID 1160)
Reported conditions: 45 min, higher = more signal, called active from +8 up or from −8 down
Activity calls are given as the source filed them.
Measured endpoint: z-score

Some solved cases for reference:
{"Compound": "Cc1ccc([C@@H]2C[C@@H](Sc3ccccc3)[C@H](C(=O)O)CN2S(=O)(=O)c2ccc(C)cc2)cc1", "z-score": "-1.97 (inactive)"}
{"Compound": "C=C[C@H](CO[Si](CC)(CC)CC)N(Cc1ccc(OC(C)=O)c(OC)c1)S(=O)(=O)c1ccc(Br)cc1", "z-score": "-0.928 (inactive)"}
{"Compound": "COC(=O)[C@H](Cc1ccccc1)N1CC2=C[C@@H](C3CC3)n3c(=O)n(C)c(=O)n3[C@H]2[C@@H]1[C@@H](O)Cc1ccccc1", "z-score": "-0.218 (inactive)"}
{"Compound": "COC(=O)[C@@]1(Cc2ccccc2)[C@H]2c3cc(C(=O)N(C)C)n(Cc4ccsc4Br)c3C[C@H]2CN1C(=O)c1ccccc1", "z-score": "0.106 (inactive)"}
{"Compound": "O=C1C2C=CC(C(O)c3cccc4ccccc34)N(Nc3ccccc3F)C2C(=O)N1c1ccccc1 (centres undefined)", "z-score": "-2.65 (inactive)"}
{"Compound": "[N-]=[N+]=NCc1ccccc1C[C@]1(C(N)=O)COC(c2ccc(OCCCO)cc2)=N1", "z-score": "-0.0652 (inactive)"}
{"Compound": "CC[C@@H]1C=C(C(=O)O)[C@H](c2ccc(Br)cc2)N1S(=O)(=O)c1ccc(C)cc1", "z-score": "-0.117 (inactive)"}
{"Compound": "COC(=O)c1c(CC[C@@H](CO)NC(=O)NCCn2cc(C3(O)CCCC3)nn2)oc(C(C)=O)c1C(=O)OC", "z-score": "0.233 (inactive)"}

Prompt: Bench note: what z-score did COCCOC(=O)N1C(=O)[C@@]2(c3cc(C#CCCO)ccc31)[C@H](C(N)=O)[C@H]1C(=O)O[C@H](c3ccccc3)[C@H](c3ccccc3)N1[C@@H]2c1ccc(O)cc1 show?
Completion: 0.561 (inactive)

Prompt: Ok, now COc1ccc(CCNC(=O)[C@@]2(Sc3ccc(C)cc3)CC(=O)N(C3Cc4ccccc4C3)[C@@H]2c2ccc(CO)cc2I)cc1
Completion: -1.66 (inactive)

###

Item-by-item account of z-score
Experiment description: FRG1 promoter luciferase signal modulators, primary screen, FRG1 inhibition for FSHD, cell-based, C2C12 myotubes, firefly/Renilla luciferase, luminescence (AID 1084)
Reported conditions: higher = more signal, called active from +8 up or from −8 down
Lab note: jot down the number only; don't add units.

Some solved cases for reference:
{"Compound": "C=C[C@H](C)[C@@H](OC(=O)Nc1ccc(OC)cc1)c1ccc(O)c2ccccc12", "Numeric value": 4.09}
{"Compound": "COC(=O)[C@@]1(Cc2ccc(OC)cc2)[C@H]2c3cc(C(=O)N(C)C)n(Cc4ccccn4)c3C[C@H]2CN1C(=O)c1ccccc1", "Numeric value": 0.0734}
{"Compound": "[N-]=[N+]=Nc1ccccc1[C@H]1OC(c2ccc(OCCCO)cc2)=N[C@@]1(CCS(=O)(=O)c1ccccc1)C(=O)NCC(O)CO (stereo not given in full)", "Numeric value": 5.85}
{"Compound": "C=C(COC)/C(=C/C[C@H](OC(C)=O)c1ccc(CO)o1)c1cc(C(=O)OC)ccc1OC", "Numeric value": 0.0728}

Prompt: Bench note: what z-score did COc1ccc([Si](C)(C)[C@@H]2[C@@H](CC(=O)N3CCC[C@H]3CO)O[C@]3(C(=O)N(c4ccccc4)c4ccccc43)[C@H]2C)cc1 show?
Completion: -1.24

Prompt: Ok, now CC1CC/C=C\[C@H]2OC34C=CCN(C(C)(C)C)C(=O)[C@H]3N(C(C)CO)C(=O)[C@@H]4C2C(=O)O1 (stereo not given in full)
Completion: -0.486
